Readings of log10(GI50) for the listed compounds
- Tested on: IGROV-1
- method-summary: Cytotoxicity against human IGROV1 cells after 48 hrs by sulforhodamine B assay
- Format: functional
- stated-conditions: IGROV-1, 48 h
Note: values are log10 of GI50 expressed in nM.

Worked set:
COc1cccc(/C=N/NC(=O)c2ccccc2Nc2ccnc(C(F)(F)F)c2)c1O = 1.40
CCOc1cccc(/C=N/NC(=O)c2ccccc2Nc2ccnc(C(F)(F)F)c2)c1O = 1.60
CCOc1cccc(/C=N/NC(=O)c2cccc(Nc3ccnc(C(F)(F)F)c3)c2)c1O = 2.90
CCN(CC)c1ccc(/C=N/NC(=O)c2ccc(Nc3ccnc(C(F)(F)F)c3)cc2)c(O)c1 = 2.30
CCOc1cccc(/C=N/NC(=O)c2ccc(Nc3ccnc(C(F)(F)F)c3)cc2)c1O = 2.70
O=C(N/N=C/c1ccc(O)cc1O)c1cccc(Nc2ccnc(C(F)(F)F)c2)c1 = 3.10

For IGROV-1, provide log10(GI50) of O=C(N/N=C/c1cc(Cl)ccc1O)c1ccccc1Nc1ccnc(C(F)(F)F)c1 please.
2.50

For IGROV-1, provide log10(GI50) of CCN(CC)c1ccc(/C=N/NC(=O)c2cccc(Nc3ccnc(C(F)(F)F)c3)c2)c(O)c1 please.
2.30
